- tgt: furin, P09958
- Sequence (P09958 whole entry): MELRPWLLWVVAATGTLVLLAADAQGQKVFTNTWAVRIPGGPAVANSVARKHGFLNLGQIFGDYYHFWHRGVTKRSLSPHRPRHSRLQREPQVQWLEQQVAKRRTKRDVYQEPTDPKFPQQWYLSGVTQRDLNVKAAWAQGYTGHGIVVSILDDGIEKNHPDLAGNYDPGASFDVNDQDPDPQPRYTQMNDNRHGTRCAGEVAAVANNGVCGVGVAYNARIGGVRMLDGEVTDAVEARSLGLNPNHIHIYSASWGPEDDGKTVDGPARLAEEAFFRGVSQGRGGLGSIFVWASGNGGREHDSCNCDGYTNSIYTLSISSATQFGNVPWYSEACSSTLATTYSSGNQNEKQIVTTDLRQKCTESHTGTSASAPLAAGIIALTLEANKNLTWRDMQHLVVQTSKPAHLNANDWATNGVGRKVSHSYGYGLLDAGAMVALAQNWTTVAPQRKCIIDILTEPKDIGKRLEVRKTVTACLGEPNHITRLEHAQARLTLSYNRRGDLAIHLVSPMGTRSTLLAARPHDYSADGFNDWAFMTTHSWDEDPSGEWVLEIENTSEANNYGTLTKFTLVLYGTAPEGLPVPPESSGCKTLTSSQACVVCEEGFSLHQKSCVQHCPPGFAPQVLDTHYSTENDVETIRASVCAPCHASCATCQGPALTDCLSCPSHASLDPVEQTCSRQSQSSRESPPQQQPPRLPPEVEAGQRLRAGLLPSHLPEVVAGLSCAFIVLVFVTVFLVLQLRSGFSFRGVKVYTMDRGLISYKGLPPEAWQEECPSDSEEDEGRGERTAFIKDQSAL
- assay procedure: furin cleavage Z-score vs untreated control; higher = more cleavage, active = 3.5 or more, inactive = 1 or less, 8 variable residues between constant flanks;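 also: purified furin at 1:10 enzyme:substrate in 50 mM HEPES pH 7.5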
- run conditions: 30 min
Some of the results follow. The hit rate among all sequences tested is not known here.
// one of true (1) = active, false (0) = inactive, no free text

Completed entries (count: 5):
CAARPDYNPPAGNASASA [HC1305]; false (0)
CARRRRHPDDAGNASASA [FS-3063]; true (1)
CARRRRHPDEAGNASASA [FS-1785]; true (1)
CAPYILKRGSAGNASASA [NG2]; false (0)
CAYGLRDARSAGNASASA [FS-900]; false (0)

Dear colleague, could you share the recorded outcome for CAAGKRVYYLAGNASASA [HC1559] when you have a moment?
false (0)

Per the assay record, what outcome was assigned to CAYGRRRRRSAGNASASA [FS-519] ?
true (1)

Record lookup: outcome of this test for CAGRRLARGSAGNASASA [HC1254] ?
true (1)

What classification did CAGSCRRARSAGNASASA [FS-1333] end up with in this test?
true (1)

// return assay outcome for CAEPPVVHGCAGNASASA [HC1314]
false (0)
